TEST_NAME: Oral bioavailability in rat at 10 mg/kg
Format: ADME, organism-based
CONDITIONS_USED: in vivo
ATTRIBUTE_MEASURED: bioavailability (%)

CO[C@@H]1COCC[C@@H]1N[C@@H]1CC[C@@](C(=O)N2CCN(c3cc(C(F)(F)F)ccn3)CC2)(C(C)C)C1
84

* * *

TEST_NAME: Half life in human liver microsomes
Format: ADME, Microsome
ATTRIBUTE_MEASURED: half-life (h)

CO[C@@H]1COCC[C@@H]1N[C@@H]1CC[C@@](C(=O)N2CCN(c3cc(C(F)(F)F)ccn3)CC2)(C(C)C)C1
1.55

Reference source: ChEMBL document CHEMBL1681668
